test system: HS 578T breast; test: NCI-60 one-dose screen, 48 h (100 = growth as untreated, 0 = no growth, -100 = all killed); conditions: 10 µM unless noted
About 83,000 compounds went through this panel and 20% of them were active in at least one assay; those are over-represented in the sample as a whole.

Molecule: COC(=O)[C@H](NC(=O)C1(C)CCC[C@]2(C)[C@H]3C[C@H]4C(C(C)C)=C[C@]3(CC[C@@H]12)[C@@H]1C(=O)CCC(=O)[C@@H]14)C(C)C (stereo not given in full)
growth (%): 92.9

Molecule: O=C(CCN1C(=O)c2ccccc2C1=O)Nc1ccc(Cl)cc1
growth (%): 39.1

Molecule: COc1ccc(CSc2nnc(SCC(=O)Nc3ccc(Cl)cc3)s2)cc1
growth (%): 75.6

Molecule: COc1ccc(C2C3=C(COC3=O)N(CCO)c3cc4c(cc32)OCCO4)cc1 (stereo not given)
growth (%): 71.6

Molecule: CC1=C(C(=O)OCC2CCN(C(=O)OC(C)(C)C)CC2)[C@H](c2cccc(C#N)c2)C2=C(CC(C)(C)CC2=O)N1
growth (%): 61.7

Molecule: NCCOc1ncccc1/C=C1\c2ccccc2-c2ccc([N+](=O)[O-])cc21
growth (%): -5.23

Molecule: CSc1nc2c(c(=O)[nH]1)N=C1c3ccccc3C(=O)C1C(c1ccccc1)N2 (stereo not given)
growth (%): 48.2

Molecule: O=C(NCCCN1CCC(N2CCCCC2)CC1)C1=Cc2cc(Br)ccc2OC1
growth (%): 55.8

Molecule: COc1ccc(CCN2C(=O)CCSC2=S)cc1OC
growth (%): 93.7

Molecule: O=C1c2cc(Br)ccc2Oc2cc([N+](=O)[O-])ccc2N1c1ccc(I)cc1F
growth (%): 101

Molecule: O=c1c2cccc(F)c2sc2c(N3CCNCC3)nc3ccccc3c12
growth (%): 34.8

Molecule: CCCC(c1nnnn1C1CCCCC1)N1CCN(C(=O)c2ccco2)CC1 (stereo not given)
growth (%): 60.7

Molecule: O=S(=O)(c1ccccc1)n1cc2c(c1-c1ccccc1)CCc1sc(Nc3ccccc3)nc1-2
growth (%): 98.3

Molecule: Cc1ccc(NCCNCC(O)CO)c2c(=O)c3ccccc3sc12 (stereo not given)
growth (%): 33.1

Molecule: COC(=O)[C@@H]1CCCN1C(=O)[C@H]1CCCN1C(=O)[C@@H](Cc1c[nH]c2ccccc12)NC(=S)Nc1cc(C(F)(F)F)cc(C(F)(F)F)c1
growth (%): 11.6

Molecule: CCCCCCn1c(=N)n(CC(O)COc2cccc(C)c2)c2ccccc21 (stereo not given)
growth (%): -5.09

Molecule: O=Cc1c(OCc2cnnn2CC(=O)Nc2ccc(Br)cc2)ccc2ccccc12
growth (%): 85.1

Molecule: COc1cc(C2C(C#N)=C(N)OC3=C2C(=O)c2ccccc2C3=O)cc(OC)c1O (stereo not given)
growth (%): 6.8

Molecule: Cc1nc(Nc2cn[nH]c2C(=O)Nc2ccc(CN3CCN(C)CC3)cc2)c2ccsc2n1
growth (%): 66.8

Molecule: O=C(Nc1ccc(F)cc1F)c1cc(I)ccc1O
growth (%): 10

* * *

tested on: UO-31 renal; experiment: NCI-60 one-dose screen, 48 h (100 = growth as untreated, 0 = no growth, -100 = all killed); conditions: 10 µM unless noted
About 83,000 compounds went through this panel and 20% of them were active in at least one assay; those are over-represented in the sample as a whole.
Binning rule for recorded growth: class 0 (below 60%), class 1 (60% to below 90%), class 2 (90% or more)

Smiles text: O=S1(=O)N(Cc2ccccc2)[C@@H](Cc2ccccc2)[C@H](O)[C@H](O)[C@H](Cc2ccccc2)N1Cc1ccccc1
Answer label: class 0

Smiles text: Cc1ccc2[nH]c(=O)cc(-n3nncc3Cn3c4ccccc4c4ccccc43)c2c1
Answer label: class 1

Smiles text: CCCc1c(C)c2sc(=O)[nH]c2[nH]c1=O
Answer label: class 2

Smiles text: CC(=S)NC(=O)C(=O)/C=C1/NC(=O)C(=O)S1
Answer label: class 1
